# system: human DP1 receptors (Homo sapiens, UniProt Q13258)
# Construct: expressed in transfected cells
# Sequence (Q13258 1-359): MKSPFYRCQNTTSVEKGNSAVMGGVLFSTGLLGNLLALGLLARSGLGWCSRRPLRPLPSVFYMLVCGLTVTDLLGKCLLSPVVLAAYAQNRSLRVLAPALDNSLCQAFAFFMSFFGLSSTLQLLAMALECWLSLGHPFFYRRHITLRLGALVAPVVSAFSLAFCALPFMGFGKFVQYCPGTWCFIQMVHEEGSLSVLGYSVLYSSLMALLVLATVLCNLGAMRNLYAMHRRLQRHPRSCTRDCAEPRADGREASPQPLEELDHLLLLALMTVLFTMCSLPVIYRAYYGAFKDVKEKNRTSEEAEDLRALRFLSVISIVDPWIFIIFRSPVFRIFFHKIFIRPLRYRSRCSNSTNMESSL
# test name: cell-based cAMP TR-FRET assay, DP1 (agonist BW245C)
# test conditions: Table 6; read-out: DP1 KB
endpoint: Kb (µM)

- structure smiles: "Cc1cc2ccccc2n1CCNC(=O)c1ccc(-n2cc(CO)nn2)cc1"
  observed: 2.42
- structure smiles: "Cc1cc2cc(Br)ccc2n1CCNC(=O)c1ccc(N2CCOCC2)cc1"
  observed: 18.9
- structure smiles: "C#Cc1ccc(C(=O)NCCn2c(C)cc3ccccc32)cc1"
  observed: 0.609
- structure smiles: "Cc1cc2ccccc2n1CCNC(=O)c1ccc(-c2cn(Cc3ccccc3)nn2)cc1"
  observed: 6.96
- structure smiles: "CCOC(=O)C1CCN(c2ccc(C(=O)NCCn3c(C(F)(F)F)cc4ccccc43)cc2)CC1"
  observed: 3.24

---

# system: human EP4 receptors (Homo sapiens, UniProt P35408)
# Construct: expressed in transfected cells
# Sequence (P35408 whole entry): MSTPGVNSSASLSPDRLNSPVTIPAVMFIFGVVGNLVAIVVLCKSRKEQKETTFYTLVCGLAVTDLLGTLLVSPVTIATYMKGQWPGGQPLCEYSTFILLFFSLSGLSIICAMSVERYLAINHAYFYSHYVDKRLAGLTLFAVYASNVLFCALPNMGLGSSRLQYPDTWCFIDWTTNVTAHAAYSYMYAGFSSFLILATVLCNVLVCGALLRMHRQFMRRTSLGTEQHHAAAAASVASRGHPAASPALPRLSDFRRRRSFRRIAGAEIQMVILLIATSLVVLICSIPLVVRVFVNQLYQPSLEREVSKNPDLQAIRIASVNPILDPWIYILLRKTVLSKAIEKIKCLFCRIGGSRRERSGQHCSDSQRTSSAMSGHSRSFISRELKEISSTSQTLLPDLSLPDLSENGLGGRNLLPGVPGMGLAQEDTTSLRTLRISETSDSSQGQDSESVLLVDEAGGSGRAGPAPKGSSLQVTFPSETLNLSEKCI
# test name: cell-based cAMP TR-FRET assay, EP4 (agonist PGE2)
# test conditions: Table 2

- structure smiles: "Cc1cc2ccccc2n1CCNC(=O)c1ccc(N2CCCCC2)cc1"
  Selective Index EP4/EP2: "3,210"
- structure smiles: "CCN(CC)c1ccc(C(=O)NCCn2c(C)cc3ccccc32)cc1"
  Selective Index EP4/EP2: "11,590"
- structure smiles: "Cc1cc2ccccc2n1CCNC(=O)c1ccc2c(c1)n(C)c(=O)n2C"
  Selective Index EP4/EP2: 1730
- structure smiles: "Cc1cc2ccccc2n1CCNC(=O)c1ccc(N2CCOCC2)c(F)c1"
  Selective Index EP4/EP2: 565
- structure smiles: "Cc1cc2ccccc2n1CCNC(=O)c1ccc(N2CCCCCC2)cc1"
  Selective Index EP4/EP2: "1,045"
- structure smiles: "CCCN(CCC)c1ccc(C(=O)NCCn2c(C)cc3ccccc32)cc1"
  Selective Index EP4/EP2: 1320
- structure smiles: "CCN(CC)c1ccc(C(=O)NCCc2c(C)[nH]c3ccccc23)cc1"
  Selective Index EP4/EP2: "6,945"
- structure smiles: "Cc1cc2ccccc2n1CCNC(=O)c1ccc(N2CCC(O)CC2)cc1"
  Selective Index EP4/EP2: "2,629"
- structure smiles: "Cc1cc2ccccc2n1CCNC(=O)c1ccc(N2CCN(C)CC2)c(F)c1"
  Selective Index EP4/EP2: 106
- structure smiles: "Cc1cc2ccccc2n1CCNC(=O)c1ccc(N2CCOCC2)cc1"
  Selective Index EP4/EP2: "2,190"
- structure smiles: "Cc1cc2ccccc2n1CCNC(=O)c1ccc(N2CCCC2)cc1"
  Selective Index EP4/EP2: "1,160"

---

Here, each record is paired with measured CC50 data.
# test name: in vitro
# test conditions: rat
endpoint: CC50

- molecule: "Cc1cc2ccccc2n1CCNC(=O)c1ccc(-c2nnn[nH]2)cc1 [Compound 7z]"
  observed: "> 300 µM"
- molecule: "Cc1[nH]c2ccccc2c1CCNC(=O)/C=C/c1ccc(OCCO)cc1 [Compound 16d]"
  observed: "81.7 µM"
- molecule: "Cc1cc2ccccc2n1CCNC(=O)c1ccc(N2CCOCC2)c(F)c1 [Compound 7t]"
  observed: "> 500 µM"
- molecule: "CCN(CC)c1ccc(C(=O)NCCc2c(C)[nH]c3ccccc23)cc1 [Compound 9a]"
  observed: "> 500 µM"

---

# system: human EP2 receptors (Homo sapiens)
# Construct: expressed in transfected cells
# Sequence (P43116 whole entry): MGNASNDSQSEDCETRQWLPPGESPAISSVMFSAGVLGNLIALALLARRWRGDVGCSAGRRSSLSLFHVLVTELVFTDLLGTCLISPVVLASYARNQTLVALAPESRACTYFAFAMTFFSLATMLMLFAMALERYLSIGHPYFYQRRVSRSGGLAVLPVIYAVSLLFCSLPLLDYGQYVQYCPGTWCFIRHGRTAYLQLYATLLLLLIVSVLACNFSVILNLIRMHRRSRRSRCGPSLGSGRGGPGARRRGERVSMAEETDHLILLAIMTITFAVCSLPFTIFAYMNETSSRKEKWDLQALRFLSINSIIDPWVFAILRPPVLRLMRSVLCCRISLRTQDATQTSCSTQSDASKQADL
# test name: cell-based cAMP TR-FRET assay, rightward shift of PGE2 concentration response curve (Schild KB), EP2
# test conditions: Table 6; read-out: EP2 KB
endpoint: log10 of Kb (log10 of the value in nM)

- structure smiles: "Cc1cc2ccccc2n1CCNC(=O)c1ccc(OCCO)c(OCCO)c1"
  system: "human EP2 receptors (Homo sapiens)"
  observed: 2.43
- structure smiles: "O=C(NCCn1c(C(F)(F)F)cc2ccccc21)c1cc(-c2ccc(F)cc2)n[nH]1"
  system: "human EP2 receptors (Homo sapiens)"
  observed: 3.94
- structure smiles: "Cc1cc(C(=O)NCCn2c(C)cc3ccccc32)n(Cc2ccccc2)n1"
  system: "human EP2 receptors (Homo sapiens)"
  observed: 3.12
- structure smiles: "C#Cc1ccc(C(=O)NCCn2c(C)cc3ccccc32)cc1"
  system: "human EP2 receptors (Homo sapiens)"
  observed: 1.89
- structure smiles: "COc1ccc(C(=O)NCCn2c(C)cc3ccccc32)cc1OC"
  system: "human EP2 receptors (Homo sapiens)"
  observed: 1.43
- structure smiles: "O=C(NCCn1c(C(F)(F)F)cc2ccccc21)c1ccc(N2CCC(C(=O)O)CC2)cc1"
  system: "human EP2 receptors (Homo sapiens)"
  observed: 2.62
- structure smiles: "Cc1ccc2c(O)c(C(=O)NCCn3c(C)cc4ccccc43)cnc2n1"
  system: "human EP2 receptors (Homo sapiens)"
  observed: 3.26
- structure smiles: "Cc1cc2ccccc2n1CCNC(=O)c1ccc(N=[N+]=[N-])cc1"
  system: "human EP2 receptors (Homo sapiens)"
  observed: 1.95
- structure smiles: "Cc1cc2cc(Br)ccc2n1CCNC(=O)c1ccc(N2CCOCC2)cc1"
  system: "human EP2 receptors (Homo sapiens)"
  observed: 2.39
- structure smiles: "Cc1cc2ccccc2n1CCNC(=O)c1cc(-c2ccc(F)cc2)n[nH]1"
  system: "human EP2 receptors (Homo sapiens)"
  observed: 1.36
- structure smiles: "Cc1cc2ccccc2n1CCNC(=O)c1ccc(OCCO)cc1"
  system: "human EP2 receptors (Homo sapiens)"
  observed: 2.12
- structure smiles: "O=C(NCCn1c(C(F)(F)F)cc2ccccc21)c1ccc(-c2nnn[nH]2)cc1"
  system: "human EP2 receptors (Homo sapiens)"
  observed: 3.05
- structure smiles: "Cc1cc2ccccc2n1CCNC(=O)c1ccc(N2CCC(C(=O)N(C)C)CC2)cc1"
  system: "human EP2 receptors (Homo sapiens)"
  observed: 2.28

---

# potency estimated from few doses per record follows
# system: human EP4 receptors (Homo sapiens)
# Construct: expressed in transfected cells
# test name: cell-based cAMP TR-FRET assay, EP4 (agonist PGE2)
# test conditions: Table 2; extrapolated Schild KB from single concentration of 10 μM

- structure smiles: "CCN(CC)c1ccc(C(=O)NCCn2c(C)cc3ccccc32)cc1"
  potency estimated from few doses (µM): 31.3
- structure smiles: "Cc1cc2ccccc2n1CCNC(=O)c1ccc(N2CCN(C)CC2)c(F)c1"
  potency estimated from few doses (µM): 4.76
- structure smiles: "Cc1cc2ccccc2n1CCNC(=O)c1ccc(N2CCCC2)cc1"
  potency estimated from few doses (µM): 28.7
- structure smiles: "CCCN(CCC)c1ccc(C(=O)NCCn2c(C)cc3ccccc32)cc1"
  potency estimated from few doses (µM): 15.5
- structure smiles: "Cc1cc2ccccc2n1CCNC(=O)c1ccc(N2CCOCC2)c(F)c1"
  potency estimated from few doses (µM): 14.5
- structure smiles: "Cc1cc2ccccc2n1CCNC(=O)c1ccc(N2CCC(O)CC2)cc1"
  potency estimated from few doses (µM): 70.3
- structure smiles: "Cc1cc2ccccc2n1CCNC(=O)c1ccc2c(c1)n(C)c(=O)n2C"
  potency estimated from few doses (µM): 36.1
- structure smiles: "Cc1[nH]c2ccccc2c1CCNC(=O)c1ccc(N(C)C)cc1"
  potency estimated from few doses (µM): 16.4
- structure smiles: "Cc1cc2ccccc2n1CCNC(=O)c1ccc(N2CCOCC2)cc1"
  potency estimated from few doses (µM): 21

---

# system: human EP2 receptors (Homo sapiens)
# Construct: expressed in transfected cells
# test name: cell-based cAMP TR-FRET assay, rightward shift of PGE2 concentration response curve (Schild KB), EP2
# test conditions: Table 1; Schild KB from single antagonist concentration 1 μM; average of 2-3 measurements in duplicate; read-out: EP2 KB
Decision: Kb >= 100 nM yields Met, all other cases yield Not met.

- molecule: "CCNc1ncc(C(=O)NCCc2c(C)[nH]c3ccccc23)cn1"
  system: "human EP2 receptors (Homo sapiens)"
  assigned category: "Met"
- molecule: "Cc1cc2ccccc2n1CCNC(=O)c1ccc(C#N)cc1F"
  system: "human EP2 receptors (Homo sapiens)"
  assigned category: "Met"
- molecule: "Cc1cc2ccccc2n1CCNC(=O)c1cccnc1N"
  system: "human EP2 receptors (Homo sapiens)"
  assigned category: "Met"
- molecule: "Cc1cc2cc(F)ccc2n1CCNC(=O)c1ccc(N2CCN(C)CC2)c(F)c1"
  system: "human EP2 receptors (Homo sapiens)"
  assigned category: "Not met"
- molecule: "Cc1cc2ccccc2n1CCNC(=O)c1ccc(C2CCCNC2)cc1 (stereo not shown)"
  system: "human EP2 receptors (Homo sapiens)"
  assigned category: "Met"
- molecule: "Cc1cc2ccccc2n1CCNC(=O)C1CCC(c2ncccn2)CC1 (stereo not shown)"
  system: "human EP2 receptors (Homo sapiens)"
  assigned category: "Met"
- molecule: "Cc1cc2ccccc2n1CCNC(=O)c1ccc(S(N)(=O)=O)cc1"
  system: "human EP2 receptors (Homo sapiens)"
  assigned category: "Met"
- molecule: "CCNc1ccc(C(=O)NCCn2c(C)cc3ccccc32)cc1"
  system: "human EP2 receptors (Homo sapiens)"
  assigned category: "Not met"
- molecule: "CC(=O)Oc1ccc(C(=O)NCCn2c(C)cc3ccccc32)cc1"
  system: "human EP2 receptors (Homo sapiens)"
  assigned category: "Met"
- molecule: "Cc1cc2ccccc2n1CCNC(=O)c1ccc(N2CCC(C)CC2)cc1"
  system: "human EP2 receptors (Homo sapiens)"
  assigned category: "Not met"
- molecule: "Cc1cc2ccccc2n1CCNC(=O)c1ccc2[nH]c(=S)[nH]c(=O)c2c1"
  system: "human EP2 receptors (Homo sapiens)"
  assigned category: "Not met"
- molecule: "Cc1cc2ccccc2n1CCNC(=O)c1ccc2c(c1)n(C)c(=O)n2C"
  system: "human EP2 receptors (Homo sapiens)"
  assigned category: "Not met"
- molecule: "Cc1cc2ccccc2n1CCNC(=O)c1ccc(CCN)cc1"
  system: "human EP2 receptors (Homo sapiens)"
  assigned category: "Met"
- molecule: "CCN(CC)c1ccc(C(=O)NCCn2c(C(F)(F)F)cc3ccccc32)cc1"
  system: "human EP2 receptors (Homo sapiens)"
  assigned category: "Met"
- molecule: "CCN(CC)c1ccc(C(=O)NCCc2c(C)[nH]c3ccccc23)cc1"
  system: "human EP2 receptors (Homo sapiens)"
  assigned category: "Not met"
- molecule: "Cc1cc2ccccc2n1CCNC(=O)c1ccc(N(C)C)c(F)c1"
  system: "human EP2 receptors (Homo sapiens)"
  assigned category: "Not met"
- molecule: "CCNc1ccc(C(=O)NCCn2c(C)cc3ccccc32)cc1C(F)(F)F"
  system: "human EP2 receptors (Homo sapiens)"
  assigned category: "Not met"
